B1: HEEH_KT_rd6_3546 (parent)
chain: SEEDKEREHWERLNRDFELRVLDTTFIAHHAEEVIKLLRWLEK

- Variants of: B1
- assay.text: folding stability dG (cDNA display proteolysis); higher = more stable
- condition.label: PBS, room temperature
Answer -1 if folding stability dG is under 1 kcal/mol, and 1 if it is 1 kcal/mol or more.

Below are worked cases with known answers.
Quick check: does F17P have folding stability dG greater than or equal to 1 kcal/mol?
-1

Thanks! And F26G ?
-1

Next:
Decide: folding stability dG of A31W >= 1 kcal/mol?
1

// same read-out, input: L13D
1

Next variant: D16L
1

And A28E ?
-1

Again, but for L38V
-1
